System: Enterococcus faecalis
Test: Minimum inhibitory concentration against Enterococcus faecalis (GC 4552) was determined
Format: functional
Measure name: MIC

GET /value?item= COc1ccc2cc(CO[C@H]3[C@H](O)[C@H](O)[C@@H](O[C@H]4[C@H](O)[C@H](O)[C@@H](Oc5ccc(C[C@H]6NC(=O)[C@H]([C@@H](C)c7ccccc7)NC(=O)CNC(=O)[C@H](CO)NC(=O)[C@@H]([C@@H](O)[C@@H]7CN=C(N)N7[C@H]7O[C@H](O)[C@@H](O)[C@H](O)[C@@H]7O)NC(=O)[C@H]([C@@H](O)[C@@H]7CN=C(N)N7)NC6=O)cc5)O[C@@H]4CO)O[C@@H]3CO)ccc2c1 &field=MIC returns 2 µg/mL

GET /value?item= COc1ccc2cc(CO[C@H]3[C@H](O)[C@@H](CO)OC(O[C@H]4[C@H](O)[C@H](O)[C@@H](Oc5ccc(C[C@H]6NC(=O)[C@H]([C@@H](C)c7ccccc7)NC(=O)CNC(=O)[C@H](CO)NC(=O)[C@@H]([C@@H](O)[C@@H]7CN=C(N)N7[C@H]7O[C@H](O)[C@@H](O)[C@H](O)[C@@H]7O)NC(=O)[C@H]([C@@H](O)[C@@H]7CN=C(N)N7)NC6=O)cc5)O[C@@H]4CO)[C@H]3O)ccc2c1 (stereo not given in full) &field=MIC returns 8 µg/mL

GET /value?item= COc1ccc2cc(CO[C@@H]3[C@@H](O[C@H]4[C@H](O)[C@H](O)[C@@H](Oc5ccc(C[C@H]6NC(=O)[C@H]([C@@H](C)c7ccccc7)NC(=O)CNC(=O)[C@H](CO)NC(=O)[C@@H]([C@@H](O)[C@@H]7CN=C(N)N7[C@H]7O[C@H](O)[C@@H](O)[C@H](O)[C@@H]7O)NC(=O)[C@H]([C@@H](O)[C@@H]7CN=C(N)N7)NC6=O)cc5)O[C@@H]4CO)O[C@H](CO)[C@@H](O)[C@@H]3O)ccc2c1 &field=MIC returns > 128 µg/mL

GET /value?item= CN[C@H](CC(C)C)C(=O)N[C@H]1C(=O)N[C@@H](CC(N)=O)C(=O)N[C@H]2C(=O)N[C@H]3C(=O)N[C@H](C(=O)N[C@H](C(=O)O)c4cc(O)cc(O)c4-c4cc3ccc4O)[C@H](O)c3ccc(c(Cl)c3)Oc3cc2cc(c3O[C@@H]2O[C@H](CO)[C@@H](O)[C@H](O)[C@H]2O[C@H]2C[C@](C)(N)[C@H](O)[C@H](C)O2)Oc2ccc(cc2Cl)[C@H]1O &field=MIC returns 1 µg/mL

GET /value?item= COc1ccc2cc(COC[C@H]3O[C@H](O[C@H]4[C@H](O)[C@H](O)[C@@H](Oc5ccc(C[C@H]6NC(=O)[C@H]([C@@H](C)c7ccccc7)NC(=O)CNC(=O)[C@H](CO)NC(=O)[C@@H]([C@@H](O)[C@@H]7CN=C(N)N7[C@H]7O[C@H](O)[C@@H](O)[C@H](O)[C@@H]7O)NC(=O)[C@H]([C@@H](O)[C@@H]7CN=C(N)N7)NC6=O)cc5)O[C@@H]4CO)[C@@H](O)[C@@H](O)[C@@H]3O)ccc2c1 &field=MIC returns 8 µg/mL

====

System: Escherichia coli
Experiment: Minimum inhibitory concentration against Escherichia coli (GC 4564) was determined
Type: functional
Give MIC for every item shown.

GET /value?item= COc1ccc2cc(CO[C@@H]3[C@@H](O[C@H]4[C@H](O)[C@H](O)[C@@H](Oc5ccc(C[C@H]6NC(=O)[C@H]([C@@H](C)c7ccccc7)NC(=O)CNC(=O)[C@H](CO)NC(=O)[C@@H]([C@@H](O)[C@@H]7CN=C(N)N7[C@H]7O[C@H](O)[C@@H](O)[C@H](O)[C@@H]7O)NC(=O)[C@H]([C@@H](O)[C@@H]7CN=C(N)N7)NC6=O)cc5)O[C@@H]4CO)O[C@H](CO)[C@@H](O)[C@@H]3O)ccc2c1 &field=MIC returns > 128 µg/mL

GET /value?item= COc1ccc2cc(COC[C@H]3O[C@H](O[C@H]4[C@H](O)[C@H](O)[C@@H](Oc5ccc(C[C@H]6NC(=O)[C@H]([C@@H](C)c7ccccc7)NC(=O)CNC(=O)[C@H](CO)NC(=O)[C@@H]([C@@H](O)[C@@H]7CN=C(N)N7[C@H]7O[C@H](O)[C@@H](O)[C@H](O)[C@@H]7O)NC(=O)[C@H]([C@@H](O)[C@@H]7CN=C(N)N7)NC6=O)cc5)O[C@@H]4CO)[C@@H](O)[C@@H](O)[C@@H]3O)ccc2c1 &field=MIC returns > 64 µg/mL

GET /value?item= CN[C@H](CC(C)C)C(=O)N[C@H]1C(=O)N[C@@H](CC(N)=O)C(=O)N[C@H]2C(=O)N[C@H]3C(=O)N[C@H](C(=O)N[C@H](C(=O)O)c4cc(O)cc(O)c4-c4cc3ccc4O)[C@H](O)c3ccc(c(Cl)c3)Oc3cc2cc(c3O[C@@H]2O[C@H](CO)[C@@H](O)[C@H](O)[C@H]2O[C@H]2C[C@](C)(N)[C@H](O)[C@H](C)O2)Oc2ccc(cc2Cl)[C@H]1O &field=MIC returns > 64 µg/mL
